Values were extracted from BigSolDB 2.1.

conditions: in n-pentanol, 273.15 K
assay-endpoint: solubility (mole fraction)
Please respond with just the number, no unit label.

According to the records, this molecule CC(N)=S displays solubility (mole fraction) of 0.0507

---

settings: in acetone, 318.05 K
assay-endpoint: solubility (mole fraction)
Please respond with just the number, no unit label.

According to the records, this compound CC(N)=S displays solubility (mole fraction) of 0.329

---

conditions: in 2-pentanone, 293.35 K
assay-endpoint: solubility (mole fraction)
Please respond with just the number, no unit label.

According to the records, this molecule CC(N)=S displays solubility (mole fraction) of 0.169

---

conditions: in methyl acetate, 303.05 K
assay-endpoint: solubility (mole fraction)
Please respond with just the number, no unit label.

According to the records, this molecule CC(N)=S displays solubility (mole fraction) of 0.145

---

conditions: in n-pentanol, 298.15 K
assay-endpoint: solubility (mole fraction)
Please respond with just the number, no unit label.

According to the records, this compound CC(N)=S displays solubility (mole fraction) of 0.113

---

settings: in isobutanol, 283.45 K
assay-endpoint: solubility (mole fraction)
Please respond with just the number, no unit label.

According to the records, this molecule CC(N)=S displays solubility (mole fraction) of 0.0508

---

settings: in 2-butanone, 318.05 K
assay-endpoint: solubility (mole fraction)

According to the records, this compound CC(N)=S displays solubility (mole fraction) of 0.312

---

details: in ethyl formate, 272.85 K
assay-endpoint: solubility (mole fraction)
Please respond with just the number, no unit label.

According to the records, this compound CC(N)=S displays solubility (mole fraction) of 0.0427

---

settings: in isopropanol, 288.25 K
assay-endpoint: solubility (mole fraction)

According to the records, this molecule CC(N)=S displays solubility (mole fraction) of 0.0792

---

conditions: in ethyl formate, 303.05 K
assay-endpoint: solubility (mole fraction)
Please respond with just the number, no unit label.

According to the records, this compound CC(N)=S displays solubility (mole fraction) of 0.113

---

conditions: in acetonitrile, 282.55 K
assay-endpoint: solubility (mole fraction)
Please respond with just the number, no unit label.

According to the records, this compound CC(N)=S displays solubility (mole fraction) of 0.0685

---

details: in ethyl acetate, 287.95 K
assay-endpoint: solubility (mole fraction)

According to the records, this compound CC(N)=S displays solubility (mole fraction) of 0.0969

---

settings: in 2-butanone, 293.35 K
assay-endpoint: solubility (mole fraction)
Please respond with just the number, no unit label.

According to the records, this molecule CC(N)=S displays solubility (mole fraction) of 0.205

---

conditions: in 2-butanone, 279.35 K
assay-endpoint: solubility (mole fraction)
Please respond with just the number, no unit label.

According to the records, this compound CC(N)=S displays solubility (mole fraction) of 0.157

---

details: in methanol, 308.05 K
assay-endpoint: solubility (mole fraction)
Please respond with just the number, no unit label.

According to the records, this compound CC(N)=S displays solubility (mole fraction) of 0.241

---

conditions: in ethyl formate, 287.95 K
assay-endpoint: solubility (mole fraction)
Please respond with just the number, no unit label.

According to the records, this compound CC(N)=S displays solubility (mole fraction) of 0.0711

---

settings: in n-butanol, 283.45 K
assay-endpoint: solubility (mole fraction)
Please respond with just the number, no unit label.

According to the records, this compound CC(N)=S displays solubility (mole fraction) of 0.0674

---

details: in isopropanol, 283.45 K
assay-endpoint: solubility (mole fraction)
Please respond with just the number, no unit label.

According to the records, this compound CC(N)=S displays solubility (mole fraction) of 0.066
